Test system: T-47D breast
Assay: NCI tumour cell line growth inhibition, 48 h
PROPERTY: TGI

INSERT INTO assay_data (compound, target_entity, property, test_value) VALUES
  ('N/C(=N\c1nc2ccccc2s1)NC(=O)Nc1ccccc1Cl', 'T-47D breast', 'TGI', '> 100 µM'),
  ('COc1cc(/C=C/C(=O)N[C@@H]2C(=O)N3[C@@H]2SC(C)(C)[C@@H]3C(=O)O)cc(OC)c1OC', 'T-47D breast', 'TGI', '> 100 µM'),
  ('O=C1CCC2=C3C4CCCCC4C(=O)C4CCCC(OC2C1)C34 (centres undefined)', 'T-47D breast', 'TGI', '> 100 µM'),
  ('O=C1OC(C2OC(=O)c3cc(O)c(O)c(O)c3-c3c(O)c(O)c4oc(=O)c5c(c(O)c(O)c6oc(=O)c3c4c65)-c3c(cc(O)c(O)c3O)C(=O)OCC2O)C2OC(=O)c3c(c(O)c(O)c(O)c3[C@H]2O)-c2c1cc(O)c(O)c2O (some centres undefined)', 'T-47D breast', 'TGI', '80.1 µM'),
  ('COc1ccc(Nc2nc(N)c(C(=O)c3ccccc3)s2)cc1', 'T-47D breast', 'TGI', '> 100 µM'),
  ('CCC(c1ccc(OC)cc1)C(CC)c1ccc(O)c(CN2CCCC2)c1 (centres undefined)', 'T-47D breast', 'TGI', '6.4 µM'),
  ('CCCCNC(=O)Oc1ccc2c(=O)c3sc4c(=O)c5ccccc5c(=O)c4c3c(=O)c2c1', 'T-47D breast', 'TGI', '5.4 µM'),
  ('NCC1OC(n2cnc3c(=O)[nH]c(N)nc32)C(O)C1O (centres undefined)', 'T-47D breast', 'TGI', '> 100 µM'),
  ('O=c1c(O)c(-c2cc(O)c(O)cc2O)oc2cc(O)c(C3OC(CO)C(O)C(O)C3O)c(O)c12 (centres undefined)', 'T-47D breast', 'TGI', '> 100 µM');

----------
# TGI values compiled below
Tested on: SK-MEL-2 melanoma
Experiment: NCI tumour cell line growth inhibition, 48 h
PROPERTY: TGI (µM)

INSERT INTO assay_data (compound, target_entity, property, bound_operator, test_value) VALUES
  ('c1ccc2c(c1)nnn2CNc1ccc(N2CCOCC2)cc1', 'SK-MEL-2 melanoma', 'TGI', '>', 100),
  ('ClC1(c2ccccc2)c2ccc(Br)cc2-c2cc(Br)ccc21', 'SK-MEL-2 melanoma', 'TGI', '=', 32.5),
  ('O=C1OC(C2OC(=O)c3cc(O)c(O)c(O)c3-c3c(O)c(O)c4oc(=O)c5c(c(O)c(O)c6oc(=O)c3c4c65)-c3c(cc(O)c(O)c3O)C(=O)OCC2O)C2OC(=O)c3c(c(O)c(O)c(O)c3[C@H]2O)-c2c1cc(O)c(O)c2O (stereo partly specified)', 'SK-MEL-2 melanoma', 'TGI', '>', 100),
  ('NC1=NC(c2ccccc2)CC(c2cc(Cl)cc(Br)c2O)=N1 (stereo unspecified)', 'SK-MEL-2 melanoma', 'TGI', '=', 18.6),
  ('COc1ccccc1N=N/C(=N/NC(=O)c1ccc(C)cc1)c1ccc(N(CCC#N)CCC#N)cc1OC', 'SK-MEL-2 melanoma', 'TGI', '=', 39.5),
  ('CCCC#CC(O)(C(=O)OC1CCN(C)CC1)C1CCCCC1 (stereo unspecified)', 'SK-MEL-2 melanoma', 'TGI', '>', 100);

These measurements were taken from PubChem BioAssay (NCI).
